assay.overview: LM-1 macrophage cytotoxicity (Alamar Blue)
Type: cell-based, murine
test.context: mouse
Where a SMILES comes first, the peptide text is derived from it. [ ]: non-standard residue; d: D form. The star is where a group is joined. NMeF = CN[C@@H](Cc1ccccc1)C(=O)O; NMeV = CN[C@H](C(=O)O)C(C)C; Hept6ynoyl = C#CCCCCC(=O)*; NH(CH2)6NH2 = NCCCCCCN*
Please respond with Yes when measured CC50 at 24 h is strictly beneath 400 µM, and with No in all other cases.

C#CCCCCC(=O)N[C@H](C(=O)N[C@H](C(=O)N[C@H](C(=O)N[C@@H](C)C(=O)N(C)[C@@H](Cc1ccccc1)C(=O)NCCCCCCN)C(C)C)C(C)C)C(C)C [peptide 22] (Hept6ynoyl-VVVA[NMeF]-{NH(CH2)6NH2}); No
C#CCCCCC(=O)N[C@H]1CCN([C@H](C(=O)N[C@H](C(=O)N[C@@H](C)C(=O)N[C@@H](Cc2ccccc2)C(=O)O)C(C)C)C(C)C)C1=O [peptide 23, HCC(CH2)4CO-Agl-Val-Val-Ala-Phe-OH]; Yes

Strictly below 400 µM: is that where CC50 at 24 h of C#CCCCCC(=O)N[C@H](C(=O)N(C)[C@H](C(=O)N[C@H](C(=O)N[C@@H](C)C(=O)N[C@@H](Cc1ccccc1)C(=O)NCCCCCCN)C(C)C)C(C)C)C(C)C [compound 19] (Hept6ynoyl-V[NMeV]VAF-{NH(CH2)6NH2}) sits?
Yes

Strictly below 400 µM: is that where CC50 at 24 h of C#CCCCCC(=O)N(C)[C@H](C(=O)N[C@H](C(=O)N[C@H](C(=O)N[C@@H](C)C(=O)N[C@@H](Cc1ccccc1)C(=O)NCCCCCCN)C(C)C)C(C)C)C(C)C [peptide 18] (Hept6ynoyl-[NMeV]VVAF-{NH(CH2)6NH2}) sits?
Yes

Strictly below 400 µM: is that where CC50 at 24 h of C#CCCCCC(=O)N(C)[C@H](C(=O)N(C)[C@H](C(=O)N(C)[C@H]1CCN([C@@H](C)C(=O)N(C)[C@@H](Cc2ccccc2)C(=O)O)C1=O)C(C)C)C(C)C [peptide 28] sits?
Yes

Strictly below 400 µM: is that where CC50 at 24 h of C#CCCCCC(=O)N[C@H](C(=O)N[C@H](C(=O)N[C@H](C(=O)N[C@@H](C)C(=O)N[C@@H](Cc1ccccc1)C(=O)NCCCCCCN)C(C)C)C(C)C)C(C)C [peptide 16] (Hept6ynoyl-VVVAF-{NH(CH2)6NH2}) sits?
No

Strictly below 400 µM: is that where CC50 at 24 h of C#CCCCCC(=O)N[C@H](C(=O)N[C@H](C(=O)N[C@H]1CCN([C@@H](C)C(=O)N[C@@H](Cc2ccccc2)C(=O)O)C1=O)C(C)C)C(C)C [peptide 25, HCC(CH2)4CO-Val-Val-Agl-Ala-Phe-OH] sits?
No
